Could you please report measured Kd for the items listed next?
Biological target: T1, human tankyrase 2 ankyrin repeat cluster 4 (TNKS2 ARC4, residues 488-649) (human, UniProt Q9H2K2 488-649)
T1 sequence (looked up): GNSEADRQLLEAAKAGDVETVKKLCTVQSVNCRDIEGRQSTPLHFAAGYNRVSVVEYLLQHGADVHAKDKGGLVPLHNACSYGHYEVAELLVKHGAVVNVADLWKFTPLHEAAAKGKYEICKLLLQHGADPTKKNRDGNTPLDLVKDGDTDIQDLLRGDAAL
Test: fluorescence polarisation; direct: TNKS2 ARC4 or TNKS1 ARC2-3 diluted 2-fold serially (40-0 uM, 50 uL) and mixed with TAMRA-labeled peptide (20 nM, 50 uL); 50 mM HEPES pH 7.5, 300 mM NaCl, 2 mM DTT, 0.05% Tween 20; 30 min, 25 C
Conditions: both partners purified
Bridge positions count the residues as written; N and C are the ends. Square brackets hold non-standard residues; d marks the D form. Ends that are not written are not given here. * marks the point of attachment. 5‑TAMRA = CN(C)c1ccc2c(-c3ccc(C(=O)*)cc3C(=O)[O-])c3ccc(N(C)C)cc3[o+]c2c1; n3 = azido unnatural amino acid, 3 CH2 in side chain; Orn(N3) = [N-]=[N+]=NCCC[C@H](N)C(=O)O; Dap(N3) = [N-]=[N+]=NC[C@H](N)C(=O)O; Aha = [N-]=[N+]=NCC[C@H](N)C(=O)O; m3c = not defined here; m3 = not defined here; m4 = not defined here; m5 = not defined here; Ahx = NCCCCCC(=O)O
Numbers only, in µM.

>  <Binder>
{5‑TAMRA-Ahx}-RE[Aha]GDG[Dap(N3)]E (triazole 3-7 via m3; reading uncertain) [T-cp4n21m3]

>  <Observable>
Kd

>  <Measured result>
22.8

$$$$
>  <Binder>
{5‑TAMRA-Ahx}-RE[Aha]GDG[n3]E (triazole 3-7 via m3c; reading uncertain) [T-cp4n23m3c]

>  <Observable>
Kd

>  <Measured result>
15.5

$$$$
>  <Binder>
{5‑TAMRA-Ahx}-RE[Aha]GDG[Aha]E-NH2 (triazole 3-7 via m3c; reading uncertain) [T-cp4n2m3c]

>  <Observable>
Kd

>  <Measured result>
0.4

$$$$
>  <Binder>
{5‑TAMRA-Ahx}-RE[Dap(N3)]GDG[Aha]E (triazole 3-7 via m4; reading uncertain) [T-cp4n12m4]

>  <Observable>
Kd

>  <Measured result>
8.9

$$$$
>  <Binder>
{5‑TAMRA-Ahx}-RE[Dap(N3)]GDG[Dap(N3)]E (triazole 3-7 via m4; reading uncertain) [T-cp4n1m4]

>  <Observable>
Kd

>  <Measured result>
61.8

$$$$

Could you report Kd for every entry in the following list?
1. {5‑TAMRA-Ahx}-RE[Aha]GDG[n3]E (triazole 3-7 via m4; reading uncertain) [T-cp4n23m4]
2. {5‑TAMRA-Ahx}-RE[Aha]GDG[n3]E (triazole 3-7 via m5; reading uncertain) [T-cp4n23m5]

1. 1.7
2. 4.3

Could you report Kd for every entry in the following list?
1. {5‑TAMRA-Ahx}-RE[n3]GDG[n3]E (bridge 3-7; not fully specified (bridges)) [T-cp4n3m5]
2. {5‑TAMRA-Ahx}-RE[Orn(N3)]GDG[Orn(N3)]E (bridge 3-7; not fully specified (bridges)) [T-cp4n3m4]

[1.9, 1.1]
